Target: control:Baker_PD-L1, Q9NZQ7
Sequence (Q9NZQ7 whole entry): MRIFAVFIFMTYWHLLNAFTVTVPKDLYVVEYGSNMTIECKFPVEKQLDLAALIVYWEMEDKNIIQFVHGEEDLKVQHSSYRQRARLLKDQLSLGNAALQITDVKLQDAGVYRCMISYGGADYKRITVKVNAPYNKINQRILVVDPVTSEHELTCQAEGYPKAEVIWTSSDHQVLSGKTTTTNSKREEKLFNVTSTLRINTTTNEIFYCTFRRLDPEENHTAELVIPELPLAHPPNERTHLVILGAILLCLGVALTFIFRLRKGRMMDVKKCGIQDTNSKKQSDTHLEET
Hello, when you answer, please use one of the following outcomes: YES = active, NO = inactive

Illustrative cases are given below, each with its answer.
| BINDER | LABEL_CLASS |
| --- | --- |
| Pdl1_binder_AF2_5 (protein) EEDLEKLVELARKALEHIKRAAEYSKEDESKMAEELAKAVALASEISKIDVEVAKLVLKAVNAVMKGDRLEEGVKLAEEALKRAEEKK | YES |
| Pdl1_binder_AF2_18 (protein) DEETRREIAEHLLRVAKKDQGLVDAEIEGDKVRVKAKTEEQYEKGKIAAEAAAAIVGGEAEAEIV | NO |
| Pdl1_binder_AF2_12 (protein) MHRTVTVKNEAEAIAAVIEAYHSGEKLTIVTDSEEIAKKAERLNKQLGGNATFEV | NO |
| Pdl1_binder_AF2_76 (protein) MYEVVIEGEKSVAEFIKLIAEQLGAEAEVEGDKAVIRTERREDAERLAEAAKRFGAEAEVRE | YES |
| Pdl1_binder_AF2_49 (protein) SKKVRFQAYQASAEVIAKEVGGYVVSTGPDKVVIAAPTEEAAEKARKALDELGKAFGFGYEVFVA | NO |
| Pdl1_binder_AF2_43 (protein) SAIEKTKEKIRQLFESAGVEVEDIEVEGDTITVHVKEDTEAARQAALLANVYAEDKVGLKVVLEA | NO |
| Pdl1_binder_AF2_22 (protein) YRIAIFFPSREKAEEWAAEARAAGRLVRYLTNLMVVEVDSEEEARAVAAEAEALGAATVFLD | NO |
| Pdl1_binder_AF2_93 (protein) REEKIEKVREAAEEAKKAGAIEDYEIEGDEVKFYRKDWKPESLLIVMKAAQVAALEGFKPTIVKS | NO |
| Pdl1_binder_AF2_79 (protein) KREEALRKAAEAAVKAMEMAKKASDEAKVEIMEHFSRAMRAIKEGDFEEAIRHLRKAAEVAEEKVGKEVGEFIREAAREVERIA | NO |
| Pdl1_binder_AF2_3 (protein) MEKAEERKKWLLEKLKELGVEVKEISLDGHVVITGAKSEEALKGAESLVKMFGLFLGVEAKVEVV | NO |

Please look at the following binder next.
Query :: Hey, what did the test say about Pdl1_binder_AF2_51 (protein) MEVIYADTKEEATMKVMEALSRGVAREDILVYLKDAKDAEKLAKVWGVTAKLA ?
Result :: NO
